Hi there, I'd appreciate the recorded pKd for every entry that follows.
Molecular target: T1, human tissue factor pathway inhibitor (TFPI) (human, UniProt P10646 29-304, limits assumed)
T1 construct: Bought protein; also called human TFPI; hTFPI
T1 sequence (looked up): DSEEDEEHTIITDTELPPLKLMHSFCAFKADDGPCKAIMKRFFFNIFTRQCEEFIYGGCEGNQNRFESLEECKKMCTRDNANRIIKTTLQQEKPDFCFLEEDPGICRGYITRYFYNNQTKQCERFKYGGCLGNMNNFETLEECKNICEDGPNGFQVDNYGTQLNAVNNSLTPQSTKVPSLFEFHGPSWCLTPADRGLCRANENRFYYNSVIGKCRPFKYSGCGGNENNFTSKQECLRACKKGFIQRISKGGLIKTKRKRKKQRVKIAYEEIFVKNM
Experiment: Biacore, TFPI on CM5 chip, Fab in mobile phase
Give bare numbers, as −log10 of the molar value.

>  <binder>
TP-3C1 Fab (Fab, V domains shown, Human Fab from HuCal Gold, expressed in E. coli TG1; Shares its VL with TP-2G9 and its VH with TP-3F2) VH: QVQLVESGGGLVQPGGSLRLSCAASGFTFSSYSMHWVRQAPGKGLEWVSGISYSSSFTYYADSVKGRFTISRDNSKNTLYLQMNSLRAEDTAVYYCARALGGGVDYWGQGTLVTVSS VL: DIALTQPASVSGSPGQSITISCTGTSSDLGGFNTVSWYQQHPGKAPKLMIYSVSSRPSGVSNRFSGSKSGNTASLTISGLQAEDEADYYCQSYDLNNLVFGGGTKLTVLG

>  <pKd>
7.67

$$$$
>  <binder>
TP-4B7 Fab (Fab, V domains shown, Human Fab from HuCal Gold, expressed in E. coli TG1) VH: QVQLQQSGPGLVKPSQTLSLTCAISGDSVSSNSAAWSWIRQSPGRGLEWLGIIYKRSKWYNDYAVSVKSRITINPDTSKNQFSLQLNSVTPEDTAVYYCARWHSDKHWGFDYWGQGTLVTVSS VL: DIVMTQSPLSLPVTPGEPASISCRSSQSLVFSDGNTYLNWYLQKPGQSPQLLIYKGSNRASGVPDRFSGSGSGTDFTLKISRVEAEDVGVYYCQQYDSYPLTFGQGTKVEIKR

>  <pKd>
7.80

$$$$
>  <binder>
TP-4E8 Fab (Fab, V domains shown, Human Fab from HuCal Gold, expressed in E. coli TG1) VH: QVQLVESGGGLVQPGGSLRLSCAASGFTFNDYAMSWVRQAPGKGLEWVSLIESVSSSTYYADSVKGRFTISRDNSKNTLYLQMNSLRAEDTAVYYCARTIGVLWDDVWGQGTLVTVSS VL: DIELTQPPSVSVAPGQTARISCSGDALGSKYVSWYQQKPGQAPVLVIYGDNKRPSGIPERFSGSNSGNTATLTISGTQAEDEADYYCQSYTYSLNQVFGGGTKLTVLG

>  <pKd>
7.44

$$$$
>  <binder>
TP-2C1 Fab (Fab, V domains shown, Human Fab from HuCal Gold, expressed in E. coli TG1) VH: QVQLVESGGGLVQPGGSLRLSCAASGFTFSPYVMSWVRQAPGKGLEWVSSISSSSSNTYYADSVKGRFTISRDNSKNTLYLQMNSLRAEDTAVYYCARGDSYMYDVWGQGTLVTVSS VL: DIELTQPPSVSVAPGQTARISCSGDSIGSYYAHWYQQKPGQAPVLVIYYDSKRPSGIPERFSGSNSGNTATLTISGTQAEDEADYYCQAYTGQSISRVFGGGTKLTVLG

>  <pKd>
8.58

$$$$
>  <binder>
TP-3G1 Fab (Fab, V domains shown, Human Fab from HuCal Gold, expressed in E. coli TG1) VH: QVQLQQSGPGLVKPSQTLSLTCAISGDSVSSNSGGWGWIRQSPGRGLEWLGLIYYRSKWYNAYAVSVKSRITINPDTSKNQFSLQLNSVTPEDTAVYYCARYLGSNFYVYSDVWGQGTLVTVSS VL: DIQMTQSPSSLSASVGDRVTITCRASQGISSYLHWYQQKPGKAPKLLIYGASTLQSGVPSRFSGSGSGTDFTLTISSLQPEDFATYYCQQQNGYPFTFGQGTKVEIKR

>  <pKd>
5.94

$$$$

Now take the following binder into account.
[in] pKd lookup needed for TP-2A2 Fab (Fab, V domains shown, Human Fab from HuCal Gold, expressed in E. coli TG1) VH: QVQLVESGGGLVQPGGSLRLSCAASGFTFSNNAMNWVRQAPGKGLEWVSTISYDGSNTYYADSVKGRFTISRDNSKNTLYLQMNSLRAEDTAVYYCARQAGGWTYSYTDVWGQGTLVTVSS VL: DIELTQPPSVSVAPGQTARISCSGDNIRTYYVHWYQQKPGQAPVVVIYGDSKRPSGIPERFSGSNSGNTATLTISGTQAEDEADYYCQSYDSEADSEVFGGGTKLTVLG , thanks.
[out] 8.18
